Attribution: the supplement of paper PMC9492666

Listing of recorded relative cell viability by entry.
Test system: MDA-MB-231
Test: relative cell viability, compound + erastin, vs DMSO (fraction of DMSO control); higher = less growth inhibition;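 note: viability read by CCK-8 kit in 96-well plates, part of a combination screen pairing lipid-metabolism-targeting compounds with erastin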
Settings: 72 h
Returns: the value as a bare number; no unit string appended.

// known answers, use as guide
{"compound": "O=C(Nc1ccccc1)N1CCN(c2nc(-c3ccccc3)ns2)CC1 + CCOc1ccccc1-n1c(C(C)N2CCN(C(=O)COc3ccc(Cl)cc3)CC2)nc2ccccc2c1=O", "observedResult": 0.353}
{"compound": "C[C@@H]1C(=O)O[C@H]2[C@H](O)[C@@]34O[C@@H]5OC(=O)[C@H](O)[C@@]56[C@H](C(C)(C)C)[C@H](O)C(OC3=O)[C@]64[C@@]12O (stereo partly drawn) [Ginkgolide C] + CCOc1ccccc1-n1c(C(C)N2CCN(C(=O)COc3ccc(Cl)cc3)CC2)nc2ccccc2c1=O", "observedResult": 0.747}

Entry CCCCCCS(=O)(=O)NC(=O)c1ccc(CSCc2ccc(-c3ccccc3)cc2)cc1 + CCOc1ccccc1-n1c(C(C)N2CCN(C(=O)COc3ccc(Cl)cc3)CC2)nc2ccccc2c1=O needs its relative cell viability filled in; supply it.
0.733

----------
System: HCC1937
Assay: relative cell viability, compound + erastin, vs DMSO (fraction of DMSO control); higher = less growth inhibition
Details: 72 h
Counter-ions that a name gives are not always drawn.
parameterMeasured: relative cell viability
Returns: the value as a bare number; no unit string appended.

{"compound": "CC1=C[C@]2(O)O[C@@]3(CC2=C(C)C)[C@@H](C)CC[C@@H]13 [Curcumenol] + CCOc1ccccc1-n1c(C(C)N2CCN(C(=O)COc3ccc(Cl)cc3)CC2)nc2ccccc2c1=O [erastin]", "relative cell viability": 0.55}
{"compound": "COc1ccc(CN2CCNCC2)c(OC)c1OC [Trimetazidine dihydrochloride] + CCOc1ccccc1-n1c(C(C)N2CCN(C(=O)COc3ccc(Cl)cc3)CC2)nc2ccccc2c1=O [erastin]", "relative cell viability": 0.786}
{"compound": "CN1CCN(C(=O)C2C(C(=O)O)[C@H]3CC[C@@H]2O3)CC1 (some centres not stated) + CCOc1ccccc1-n1c(C(C)N2CCN(C(=O)COc3ccc(Cl)cc3)CC2)nc2ccccc2c1=O [erastin]", "relative cell viability": 0.278}
{"compound": "COc1cc(N2CCN(C)CC2)ccc1Nc1ncc2c(n1)N(C)c1ccccc1C(=O)N2 + CCOc1ccccc1-n1c(C(C)N2CCN(C(=O)COc3ccc(Cl)cc3)CC2)nc2ccccc2c1=O [erastin]", "relative cell viability": 0.365}
{"compound": "CC(C)[C@H]1CC[C@H](C(=O)N[C@H](Cc2ccccc2)C(=O)O)CC1 [Nateglinide] + CCOc1ccccc1-n1c(C(C)N2CCN(C(=O)COc3ccc(Cl)cc3)CC2)nc2ccccc2c1=O [erastin]", "relative cell viability": 0.666}
{"compound": "CC1(C)CC[C@]2(C(=O)O[C@@H]3O[C@H](CO)[C@@H](O)[C@H](O)[C@H]3O)CC[C@]3(C)C(=CC[C@@H]4[C@@]5(C)CC[C@H](O[C@@H]6O[C@H](C(=O)O)[C@@H](O)[C@H](O)[C@H]6O[C@@H]6O[C@H](CO)[C@@H](O)[C@H](O)[C@H]6O)C(C)(C)[C@@H]5CC[C@]43C)[C@@H]2C1 [Ginsenoside Ro] + CCOc1ccccc1-n1c(C(C)N2CCN(C(=O)COc3ccc(Cl)cc3)CC2)nc2ccccc2c1=O [erastin]", "relative cell viability": 0.703}
{"compound": "Nc1ncnc2c1ncn2C1OC(COP(=O)(O)O)C(O)C1O (configuration not stated) [Adenosine 5'-monophosphate monohydrate] + CCOc1ccccc1-n1c(C(C)N2CCN(C(=O)COc3ccc(Cl)cc3)CC2)nc2ccccc2c1=O [erastin]", "relative cell viability": 0.97}
{"compound": "NNC(=O)c1nn(Cc2ccc(Cl)cc2Cl)c2ccccc12 [Adjudin] + CCOc1ccccc1-n1c(C(C)N2CCN(C(=O)COc3ccc(Cl)cc3)CC2)nc2ccccc2c1=O [erastin]", "relative cell viability": 0.557}

Entry O=C(O)Cn1nnc(-c2cc(N3CCC(Oc4cc(F)ccc4Br)CC3)no2)n1 + CCOc1ccccc1-n1c(C(C)N2CCN(C(=O)COc3ccc(Cl)cc3)CC2)nc2ccccc2c1=O [erastin] needs its relative cell viability filled in; supply it.
0.529

Entry Cc1cccc(Nc2cc(Cl)nc(SCC(=O)O)n2)c1C [Pirinixic Acid] + CCOc1ccccc1-n1c(C(C)N2CCN(C(=O)COc3ccc(Cl)cc3)CC2)nc2ccccc2c1=O [erastin] needs its relative cell viability filled in; supply it.
0.602

Entry O=C(Oc1ccc([N+](=O)[O-])cc1)N1CCC(C(O)(c2ccc3c(c2)OCO3)c2ccc3c(c2)OCO3)CC1 + CCOc1ccccc1-n1c(C(C)N2CCN(C(=O)COc3ccc(Cl)cc3)CC2)nc2ccccc2c1=O [erastin] needs its relative cell viability filled in; supply it.
0.556

Entry Cc1cc(SCc2sc(-c3ccc(C(F)(F)F)cc3)nc2C)ccc1OCC(=O)O + CCOc1ccccc1-n1c(C(C)N2CCN(C(=O)COc3ccc(Cl)cc3)CC2)nc2ccccc2c1=O [erastin] needs its relative cell viability filled in; supply it.
0.529

Entry O=C(O)c1cc(F)c2nc(N3[C@@H]4CC[C@H]3C[C@@H](OCc3c(-c5ccccc5OC(F)(F)F)noc3C3CC3)C4)sc2c1 [Tropifexor] + CCOc1ccccc1-n1c(C(C)N2CCN(C(=O)COc3ccc(Cl)cc3)CC2)nc2ccccc2c1=O [erastin] needs its relative cell viability filled in; supply it.
0.658

Entry c1cc(-c2cnn3cc(-c4ccc(OCCN5CCCCC5)cc4)cnc23)ccn1 [Dorsomorphin] + CCOc1ccccc1-n1c(C(C)N2CCN(C(=O)COc3ccc(Cl)cc3)CC2)nc2ccccc2c1=O [erastin] needs its relative cell viability filled in; supply it.
0.137

Entry CC[C@H](C)C(=O)O[C@H]1C[C@@H](C)C=C2C=C[C@H](C)[C@H](CC[C@@H]3C[C@@H](O)CC(=O)O3)[C@H]21 [Lovastatin] + CCOc1ccccc1-n1c(C(C)N2CCN(C(=O)COc3ccc(Cl)cc3)CC2)nc2ccccc2c1=O [erastin] needs its relative cell viability filled in; supply it.
0.804

Entry COC(=O)/C=C/c1cccc(N(Cc2ccc(-c3ccc(N(C)C)cc3)cc2)C(=O)C2CCCCC2)c1 [Fexaramine] + CCOc1ccccc1-n1c(C(C)N2CCN(C(=O)COc3ccc(Cl)cc3)CC2)nc2ccccc2c1=O [erastin] needs its relative cell viability filled in; supply it.
0.5

Entry C[C@H](CCOc1cccc(CC(=O)O)c1)N(Cc1cccc(C(F)(F)F)c1Cl)CC(c1ccccc1)c1ccccc1 [RGX-104 free Acid] + CCOc1ccccc1-n1c(C(C)N2CCN(C(=O)COc3ccc(Cl)cc3)CC2)nc2ccccc2c1=O [erastin] needs its relative cell viability filled in; supply it.
0.564
